Measured values drawn from ChEMBL document CHEMBL3885881 for this set.

Please provide measured HEMATOCRIT for the entries that follow.
# Species: Rattus norvegicus
# EXPERIMENTAL DETAILS: DrugMatrix - Regimen: Daily Repeat
# Type: toxicity, organism-based, Sprague-Dawley
# Parameters: regimen Daily Repeat, gender Male, age 6-8 weeks
# RECORDED CONDITIONS: in vivo, po, 1500 mg/kg, 120 h, tissue Blood, route oral GAVAGE, dose level High, time 5 day, vehicle .5 % CMC

Recorded HEMATOCRIT, per entry:
NS(=O)(=O)c1cc2c(cc1Cl)NCNS2(=O)=O [HYDROCHLOROTHIAZIDE]    33.87%
CCOC(=O)[C@H](CCc1ccccc1)N[C@@H](C)C(=O)N1[C@H](C(=O)O)C[C@@H]2CCC[C@@H]21    35.77%
COC(=O)c1ccc(O)cc1    35.9%

Dear colleague, I am looking for the recorded HEMATOCRIT of the following molecule: `O=C1CCc2cc(OCCCCc3nnnn3C3CCCCC3)ccc2N1` 45.1%

====

Provide the recorded LYMPHOCYTE for the entries that follow.
# Species on record: Rattus norvegicus
# EXPERIMENTAL DETAILS: DrugMatrix - Regimen: Daily Repeat
# Format: toxicity, organism-based, Sprague-Dawley
# Design: regimen Daily Repeat, gender Male, age 6-8 weeks
# RECORDED CONDITIONS: in vivo, po, 0 mg/kg, 72 h, tissue Blood, route oral GAVAGE, dose level Control, time 3 day, vehicle 100 % WATER
One number for each entry, in %.

Fc1ccc([C@@H]2CCNC[C@H]2COc2ccc3c(c2)OCO3)cc1 [PAROXETINE]    91.17
Clc1ccc(C(c2ccccc2Cl)C(Cl)Cl)cc1 (stereo not given) [MITOTANE]    91.67
Nc1ccc(S(=O)(=O)Nc2ccnn2-c2ccccc2)cc1 [SULFAPHENAZOLE]    88.5
COc1ccc(C(CN(C)C)C2(O)CCCCC2)cc1 (stereo not given) [VENLAFAXINE]    89.33

I have 5 molecules here; please give me LYMPHOCYTE for each one.
1. NC(=O)c1ncn([C@@H]2O[C@H](CO)[C@@H](O)[C@H]2O)n1 [RIBAVIRIN]
2. Cn1cnc([N+](=O)[O-])c1Sc1ncnc2nc[nH]c12 [AZATHIOPRINE]
3. NCC1(CC(=O)O)CCCCC1 [GABAPENTIN]
4. O=C1NC(=O)C(c2ccccc2)(c2ccccc2)N1 [PHENYTOIN]
5. CC(C)(S)[C@@H](N)C(=O)O [PENICILLAMINE]

1: 91; 2: 93; 3: 86.83; 4: 90.17; 5: 92.67

Using the record for CN1CCC[C@H]1c1cccnc1 [NICOTINE] , report its LYMPHOCYTE. 92.33

====

Exercise: state measured ABSOLUTE EOSINOPHIL for each of the compounds provided.
# Species: Rattus norvegicus
# EXPERIMENTAL DETAILS: DrugMatrix - Regimen: Daily Repeat
# Type: toxicity, organism-based, Sprague-Dawley
# Design: regimen Daily Repeat, gender Male, age 6-8 weeks
# RECORDED CONDITIONS: in vivo, po, 0 mg/kg, 72 h, tissue Blood, route oral GAVAGE, dose level Control, time 3 day, […]
One number for each entry, in CELLS/uL.

Look over these answered cases.
COc1ccc2c(c1)c(CC(=O)OCC(=O)O)c(C)n2C(=O)c1ccc(Cl)cc1    138.5
CC(=O)[C@H]1CC[C@H]2[C@@H]3CCC4=CC(=O)CC[C@]4(C)[C@H]3CC[C@]12C    41.83
CC(C)n1c(/C=C/C(O)CC(O)CC(=O)O)c(-c2ccc(F)cc2)c2ccccc21 (stereo not given)    33
CC(C)(Oc1ccc(CCNC(=O)c2ccc(Cl)cc2)cc1)C(=O)O [BEZAFIBRATE]    37.33
Oc1c(Cl)cc(Cl)cc1Sc1cc(Cl)cc(Cl)c1O    33

// input: 7 compounds below; output: ABSOLUTE EOSINOPHIL for each
1. CCCC[C@@H](CC)COC(=O)c1ccccc1C(=O)OC[C@@H](CC)CCCC [BIS(2-ETHYLHEXYL)PHTHALATE]
2. COCc1c(C(C)C)nc(C(C)C)c(/C=C/[C@@H](O)C[C@@H](O)CC(=O)O)c1-c1ccc(F)cc1
3. c1ccc2[nH]c(-c3cscn3)nc2c1
4. CC1=C(/C=C/C(C)=C/C=C/C(C)=C\C(=O)O)C(C)(C)CCC1
5. CN(C)CCCC1(c2ccc(F)cc2)OCc2cc(C#N)ccc21 (stereo not given)
6. COC1=CC(=O)C[C@@H](C)[C@]12Oc1c(Cl)c(OC)cc(OC)c1C2=O
7. CSc1ccc2c(c1)N(CCC1CCCCN1C)c1ccccc1S2 (stereo not given)

13.67
0
13.67
0
41.83
0
179.67

Below is a list of compounds. For each, state its recorded ABSOLUTE EOSINOPHIL.
1. Cn1cnc([N+](=O)[O-])c1Sc1ncnc2nc[nH]c12
2. CCCCCCCCCc1ccc(O)cc1

0
0

====

# Species on record: Rattus norvegicus
# EXPERIMENTAL DETAILS: DrugMatrix - Regimen: Daily Repeat
# Type: toxicity, organism-based, Sprague-Dawley
# Design: regimen Daily Repeat, gender Male, age 6-8 weeks
# RECORDED CONDITIONS: in vivo, po, 0 mg/kg, 72 h, tissue Plasma, route oral GAVAGE, dose level Control, time 3 day, […]
READOUT NAME: URIC ACID (mg/dL)
Give bare numbers, in mg/dL.

For orientation, consider the following solved cases.
COC1=CC(=O)C[C@@H](C)[C@]12Oc1c(Cl)c(OC)cc(OC)c1C2=O    1.75
CC1=C(/C=C/C(C)=C/C=C/C(C)=C\C(=O)O)C(C)(C)CCC1    1.38
COCc1c(C(C)C)nc(C(C)C)c(/C=C/[C@@H](O)C[C@@H](O)CC(=O)O)c1-c1ccc(F)cc1    1.3

For each entry beneath this line, provide reported URIC ACID.
1. C=CCN
2. CCCC[C@@H](CC)COC(=O)c1ccccc1C(=O)OC[C@@H](CC)CCCC [BIS(2-ETHYLHEXYL)PHTHALATE]
3. CC(=O)[C@H]1CC[C@H]2[C@@H]3CCC4=CC(=O)CC[C@]4(C)[C@H]3CC[C@]12C
4. Oc1c(Cl)cc(Cl)cc1Sc1cc(Cl)cc(Cl)c1O
5. CSc1ccc2c(c1)N(CCC1CCCCN1C)c1ccccc1S2 (centres undefined)

0.83
0.8
0.48
0.68
1.55

====

# Species on record: Rattus norvegicus
# EXPERIMENTAL DETAILS: DrugMatrix - Regimen: Daily Repeat
# Assay type: toxicity, organism-based, Sprague-Dawley
# Set-up: regimen Daily Repeat, gender Male, age 6-8 weeks
# RECORDED CONDITIONS: in vivo, iv, 0 mg/kg, 72 h, tissue Plasma, dose level Control, time 3 day, vehicle 100 % SALINE
READOUT NAME: TOTAL BILIRUBIN (mg/dL)
Answers are plain numbers, in mg/dL.

Consider the reported TOTAL BILIRUBIN for these molecules:
CC[C@@]1(O)C(=O)OCc2c1cc1n(c2=O)Cc2cc3ccccc3nc2-1 [CAMPTOTHECIN]    0.15
CC1(C)S[C@@H]2[C@H](NC(=O)[C@H](NC(=O)N3CCNC3=O)c3ccccc3)C(=O)N2[C@H]1C(=O)O [AZLOCILLIN]    0.18
NCC[C@H](O)C(=O)N[C@@H]1C[C@H](N)[C@@H](O[C@H]2O[C@H](CN)[C@@H](O)[C@H](O)[C@H]2O)[C@H](O)[C@H]1O[C@H]1O[C@H](CO)[C@@H](O)[C@H](N)[C@H]1O [AMIKACIN]    0.2

Would you mind telling me what TOTAL BILIRUBIN value was observed for CN(N=O)C(=O)N[C@@H](C=O)[C@@H](O)[C@H](O)[C@H](O)CO [STREPTOZOCIN] ? 0.18

====

# Species: Rattus norvegicus
# EXPERIMENTAL DETAILS: DrugMatrix - Regimen: Daily Repeat
# Type: toxicity, organism-based, Sprague-Dawley
# Set-up: regimen Daily Repeat, gender Male, age 6-8 weeks
# RECORDED CONDITIONS: in vivo, ip, 5 mg/kg, 120 h, tissue Blood, route intraperitoneal, dose level High, time 5 day, vehicle 100 % SALINE
READOUT NAME: ABSOLUTE EOSINOPHIL (cells/µL)
One number for each entry, in cells/µL.

Give its ABSOLUTE EOSINOPHIL value. Item: `CARBOPLATIN` 44

====

Please provide measured CREATININE for the entries that follow.
# Organism: Rattus norvegicus
# EXPERIMENTAL DETAILS: DrugMatrix - Regimen: Daily Repeat
# Format: toxicity, organism-based, Sprague-Dawley
# Set-up: regimen Daily Repeat, gender Male, age 6-8 weeks
# RECORDED CONDITIONS: in vivo, po, 0 mg/kg, 120 h, tissue Plasma, route oral GAVAGE, dose level Control, time 5 day, vehicle .5 % CMC
One number for each entry, in mg/dL.

Cc1c(-c2ccccc2)oc2c(C(=O)OCCN3CCCCC3)cccc2c1=O [FLAVOXATE]    0.23
CC(C)[C@H](N)C(=O)OCCOCn1cnc2c(=O)[nH]c(N)nc21 [VALACYCLOVIR]    0.18

Next up:
I'd like to know its CREATININE. The compound in question is CC[C@H]1OC(=O)[C@H](C)[C@@H](O[C@H]2C[C@@](C)(OC)[C@@H](O)[C@H](C)O2)[C@H](C)[C@@H](O[C@@H]2O[C@H](C)C[C@H](N(C)C)[C@H]2O)[C@](C)(O)C[C@@H](C)/C(=N\OCOCCOC)[C@H](C)[C@@H](O)[C@]1(C)O [ROXITHROMYCIN] 0.58
